# Organism: Rattus norvegicus
# PROTOCOL DETAILS: Open TG-GATES - Regimen: Single
# Assay type: toxicity, organism-based, Sprague-Dawley
# Design: regimen Single, gender Male, age 6 weeks
# TEST SETTINGS: in vivo, po, 0 mg/kg, 9 h, tissue Blood, route gavage, dose level Control
MEASUREMENT KIND: MCV (fL)
The answer is to be given in fL; state only the numeric part.

Task: Please report the recorded MCV for CC(=O)Nc1ccc2c(c1)Cc1ccccc1-2 .
Result: 63.4

Task: Please report the recorded MCV for CCN(CC)N=O .
Result: 62.5

Task: Please report the recorded MCV for O=C(O)COc1nn(Cc2ccccc2)c2ccccc12 .
Result: 65.8

Task: Please report the recorded MCV for CC(=O)N1CCN(c2ccc(OCC3COC(Cn4ccnc4)(c4ccc(Cl)cc4Cl)O3)cc2)CC1 (configuration not stated) .
Result: 63.3

Task: Please report the recorded MCV for CC[C@@H](CO)NCCN[C@@H](CC)CO .
Result: 62.7

Task: Please report the recorded MCV for CC(CCc1ccccc1)NCC(O)c1ccc(O)c(C(N)=O)c1 (configuration not stated) .
Result: 64

Task: Please report the recorded MCV for CC(C)Cc1ccc(C(C)C(=O)O)cc1 (configuration not stated) .
Result: 64

* * *

Provide the reported Mono of each item.
# Organism: Rattus norvegicus
# PROTOCOL DETAILS: Open TG-GATES - Regimen: Single
# Format: toxicity, organism-based, Sprague-Dawley
# Design: regimen Single, gender Male, age 6 weeks
# TEST SETTINGS: in vivo, po, 0 mg/kg, 6 h, tissue Blood, route gavage, dose level Control
The answer is to be given in %; state only the numeric part.

Task: Please report the recorded Mono for CC(=O)N1CCN(c2ccc(OCC3COC(Cn4ccnc4)(c4ccc(Cl)cc4Cl)O3)cc2)CC1 (configuration not stated) .
Result: 1.8

Task: Please report the recorded Mono for CC[C@@H](CO)NCCN[C@@H](CC)CO .
Result: 2.4

Task: Please report the recorded Mono for CCN(CC)N=O .
Result: 2.4

Task: Please report the recorded Mono for CC(=O)Nc1ccc2c(c1)Cc1ccccc1-2 .
Result: 2.8

Task: Please report the recorded Mono for CC(C)Cc1ccc(C(C)C(=O)O)cc1 (configuration not stated) .
Result: 1.8

Task: Please report the recorded Mono for CC(CCc1ccccc1)NCC(O)c1ccc(O)c(C(N)=O)c1 (configuration not stated) .
Result: 3.4

Task: Please report the recorded Mono for O=C(O)COc1nn(Cc2ccccc2)c2ccccc12 .
Result: 8.4

* * *

# Organism: Rattus norvegicus
# PROTOCOL DETAILS: Open TG-GATES - Regimen: Single
# Assay type: toxicity, organism-based, Sprague-Dawley
# Parameters: regimen Single, gender Male, age 6 weeks
# TEST SETTINGS: in vivo, po, 0 mg/kg, 9 h, tissue Blood, route gavage, dose level Control
MEASUREMENT KIND: Ht (%)
The answer is to be given in %; state only the numeric part.

Task: Please report the recorded Ht for CCN(CC)N=O .
Result: 39.7

Task: Please report the recorded Ht for CC[C@@H](CO)NCCN[C@@H](CC)CO .
Result: 39.5

Task: Please report the recorded Ht for O=C(O)COc1nn(Cc2ccccc2)c2ccccc12 .
Result: 40.3

Task: Please report the recorded Ht for CC(CCc1ccccc1)NCC(O)c1ccc(O)c(C(N)=O)c1 (configuration not stated) .
Result: 39.5

Task: Please report the recorded Ht for CC(C)Cc1ccc(C(C)C(=O)O)cc1 (configuration not stated) .
Result: 38.7

Task: Please report the recorded Ht for CC(=O)Nc1ccc2c(c1)Cc1ccccc1-2 .
Result: 40.5

Task: Please report the recorded Ht for CC(=O)N1CCN(c2ccc(OCC3COC(Cn4ccnc4)(c4ccc(Cl)cc4Cl)O3)cc2)CC1 (configuration not stated) .
Result: 38.9
